// provenance: a melting point compilation (Tetko et al.; mined from patent text by program, amines drawn as free bases though some values may be those of a salt)

[
  {
    "Compound": "O=C(O)c1ccc(F)cc1Nc1ccc(I)cc1Cl",
    "melting point": "238 to 239 °C"
  },
  {
    "Compound": "O=C1N(CC2CCOCC2)c2ccccc2C12COc1cc3c(cc12)OCO3 (stereo not given)",
    "melting point": "142 to 144 °C"
  },
  {
    "Compound": "CCCNC(=O)c1ccc(-c2ccc3nnn(C(C)(C)c4ccc5ncccc5c4)c3n2)cc1F",
    "melting point": "162 to 164 °C"
  },
  {
    "Compound": "CC(C(N)=O)c1ccc2c(c1)C(=O)Cc1cc([N+](=O)[O-])ccc1S2 (stereo not given)",
    "melting point": "207 to 209 °C"
  },
  {
    "Compound": "O=C(CC1CCN(Cc2ccccc2)CC1)c1ccc(N2CCCC2)cc1",
    "melting point": "110 to 112 °C"
  },
  {
    "Compound": "Cc1cc(CCCCCOc2c(Cl)cc(-c3noc(C(F)(F)F)n3)cc2Cl)on1",
    "melting point": "42 to 43 °C"
  },
  {
    "Compound": "CCc1cccc(N=C(C)Nc2cccc(CC)c2)c1",
    "melting point": "86 to 87 °C"
  },
  {
    "Compound": "CC(=O)NC[C@H]1CN(c2ccc(C(=O)c3cnc4ccc(C#N)cn34)cc2)C(=O)O1",
    "melting point": "224 to 226 °C"
  },
  {
    "Compound": "Cc1nc(CCO)c2n1-c1ccc(Cl)cc1C(c1ccccc1Cl)=NC2",
    "melting point": "170 to 171 °C"
  },
  {
    "Compound": "Cc1cc(C2=NN=C(C#N)Cc3cc4c(cc32)OCO4)ccc1[N+](=O)[O-]",
    "melting point": "211 to 214 °C"
  },
  {
    "Compound": "CN(Cc1coc(C=Cc2ccc(C(F)(F)F)cc2)n1)c1ccc(OCCCn2ccnn2)cc1",
    "melting point": "137 to 138 °C"
  },
  {
    "Compound": "CCCc1nn(C)c2c(=O)[nH]c(Cc3ccc(-n4cnnc4)cc3)nc12",
    "melting point": "297 to 300 °C"
  },
  {
    "Compound": "O=C(O)c1cccc(NCCOc2cccc3ccccc23)c1",
    "melting point": "150 to 152 °C"
  },
  {
    "Compound": "N#Cc1cn(Nc2c(Cl)cc(Cl)cc2Cl)c(=O)[nH]c1=O",
    "melting point": "> 320 °C"
  },
  {
    "Compound": "ClCCCOc1ccc2ccccc2c1",
    "melting point": "46 to 49 °C"
  },
  {
    "Compound": "CC(=O)Nc1ccc(OC(=O)C(CSSCC(NC(C)=O)C(=O)O)NC(C)=O)cc1 (stereo not given)",
    "melting point": "95 to 99 °C"
  },
  {
    "Compound": "Cc1cccc(-n2cc(CC(=O)O)c(-c3ccc(Cl)cc3)n2)c1",
    "melting point": "129 to 130 °C"
  },
  {
    "Compound": "CN1CCN(c2cc3c(F)cccc3c(=O)[nH]2)CC1CO (stereo not given)",
    "melting point": "216 to 217 °C"
  },
  {
    "Compound": "Brc1ccc2c(c1)OC(c1ccccc1)(c1ccccc1)O2",
    "melting point": "88 to 89 °C"
  },
  {
    "Compound": "CC(=O)Nc1ccc2c(c1)C(=O)CC1(CCN(Cc3ccc([N+](=O)[O-])cc3)CC1)O2",
    "melting point": "> 250 °C"
  }
]
